Entries and their measured IC50 follow.
Tested on: B16
PROTOCOL: Cytotoxicity against Mus musculus (mouse) B16 cells after 3 days by MTT assay
Type: functional, cell-based
ASSAY_SETUP: B16, 72 h
Field format: number, assumed µM, no unit text.

Worked cases, answers included:
{"TEST_SMILES": "COc1cc(/C=C/C(=O)c2ccc(OC)c(N)c2)cc(OC)c1", "READOUT_LABEL": "IC50", "UNITS_OF_MEASURE": "µM", "REPORTED": 8.8}
{"TEST_SMILES": "COc1ccc(/C=C/C(=O)c2cc(OC)c(OC)c(OC)c2)cc1N", "READOUT_LABEL": "IC50", "UNITS_OF_MEASURE": "µM", "REPORTED": 0.24}
{"TEST_SMILES": "COc1ccc(C(=O)/C=C/c2cc(OC)c(OC)c(OC)c2)cc1N", "READOUT_LABEL": "IC50", "UNITS_OF_MEASURE": "µM", "REPORTED": 67}
{"TEST_SMILES": "COc1ccc(OC)c(C(=O)/C=C/c2ccc(OC)c(N)c2)c1", "READOUT_LABEL": "IC50", "UNITS_OF_MEASURE": "µM", "REPORTED": 2}
{"TEST_SMILES": "COc1ccc(OC)c(/C=C/C(=O)c2ccc(OC)c(N)c2)c1", "READOUT_LABEL": "IC50", "UNITS_OF_MEASURE": "µM", "REPORTED": 5.6}

Next up:
Ask: What value of IC50 has been reported for the following molecule? COc1ccc(OC)c(/C=C/C(=O)c2ccc(OC)c([N+](=O)[O-])c2)c1
Result: 13

###

Test system: B16
PROTOCOL: Cytotoxicity against Mus musculus (mouse) B16 cells after 3 days by MTT assay
Type: functional, cell-based
ASSAY_SETUP: B16, 72 h
READOUT_LABEL: IC50

Answered cases to consult:
{"TEST_SMILES": "COc1ccc(/C=C/C(=O)c2cc(OC)c(OC)c(OC)c2)cc1[N+](=O)[O-]", "TARGET_UNDER_TEST": "B16", "IC50": "> 100 µM"}
{"TEST_SMILES": "COc1ccc(OC)c(C(=O)/C=C/c2ccc(OC)c([N+](=O)[O-])c2)c1", "TARGET_UNDER_TEST": "B16", "IC50": "> 100 µM"}
{"TEST_SMILES": "COc1ccc(C(=O)/C=C/c2ccccc2)cc1N", "TARGET_UNDER_TEST": "B16", "IC50": "> 100 µM"}
{"TEST_SMILES": "COc1cc(C(=O)/C=C/c2ccc([N+](=O)[O-])cc2)cc(OC)c1OC", "TARGET_UNDER_TEST": "B16", "IC50": "> 100 µM"}
{"TEST_SMILES": "COc1ccc(C(=O)/C=C/c2cc(OC)c(OC)c(OC)c2)cc1[N+](=O)[O-]", "TARGET_UNDER_TEST": "B16", "IC50": "> 100 µM"}

Ask: # query: IC50 | item COc1cccc(/C=C/C(=O)c2ccc(OC)c([N+](=O)[O-])c2)c1 | system: B16
Result: > 100 µM

Ask: Now the molecule COc1ccc(/C=C/C(=O)c2ccc(OC)c([N+](=O)[O-])c2)cc1OC
Result: > 100 µM

###

System: B16
PROTOCOL: Cytotoxicity against Mus musculus (mouse) B16 cells after 3 days by MTT assay
Format: functional, cell-based
ASSAY_SETUP: B16, 72 h
Each entry below carries its reported pIC50.
Keep it numeric: pIC50 is minus log10 of the concentration in mol/L.

Illustrative cases are given below, each with its answer.
{"TEST_SMILES": "COc1cc(/C=C/C(=O)c2ccc(OC)c([N+](=O)[O-])c2)cc(OC)c1", "REPORTED": 5.25}
{"TEST_SMILES": "COc1ccc(C(=O)/C=C/c2ccc(OC)c(OC)c2)cc1N", "REPORTED": 4.74}

Ask: Can you look up pIC50 on B16 for COc1cc(C(=O)/C=C/c2ccc(N)cc2)cc(OC)c1OC ?
Result: 4.52

Ask: Also, COc1ccc(/C=C/C(=O)c2ccc(OC)c(N)c2)cc1 please.
Result: 4.37

Ask: // repeat for COc1cccc(/C=C/C(=O)c2ccc(OC)c(N)c2)c1 and report
Result: 4.48
